The reported measurements were obtained from ChEMBL document CHEMBL4052601.

Molecular target: Tyrosinase (Homo sapiens);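 note: tyrosinase of unspecified origin acting on L-tyrosine, compound preincubated with enzyme for 15 min before adding substrate, inhibition expressed versus control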
Settings: at 10 µM
Description: Inhibition of tyrosinase (unknown origin) using L-tyrosine as substrate at 10 uM preincubated for 15 mins followed by substrate addition relative to control

| molecule | inhibition [%] |
| --- | --- |
| O=C1C[C@@H](c2ccc(O)cc2)Oc2cc(O)ccc21 | 4.6 |
| CC(C)=CCc1cc([C@@H]2CC(=O)c3ccc(O)c(CC=C(C)C)c3O2)ccc1O | 2.3 |
| CC(C)=CCc1cc([C@@H]2CC(=O)c3ccc(O)cc3O2)ccc1O | 7.8 |
| CC1(C)C=Cc2c(ccc(-c3coc4cc(O)ccc4c3=O)c2O)O1 | 9.7 |
| CC1(C)C=Cc2c(ccc3c2O[C@H]2c4ccc(O)cc4OC[C@@H]32)O1 | 2.4 |
| CC1(C)C=Cc2c(ccc(-c3cc4ccc(O)cc4o3)c2O)O1 | 41.7 |
| COc1ccc([C@@H]2COc3c(ccc(O)c3CC=C(C)C)C2)c(O)c1O | 20.1 |
| COc1c(CC=C(C)C)c(O)cc2c1C[C@H](c1ccc(O)cc1O)CO2 | 91.1 |
| CC1(C)C=Cc2c(ccc3c2OC[C@H]2c4ccc(O)cc4O[C@@H]32)O1 | 11.2 |
| CC(C)=CCc1cc([C@H]2Oc3cc(O)ccc3C[C@H]2O)ccc1O | 14.3 |
| CC(C)=CCc1c(O)ccc([C@@H]2COc3c(ccc4c3C=CC(C)(C)O4)C2)c1O | 0 |
| COc1ccc(C2(O)COc3c(ccc(O)c3CC=C(C)C)C2=O)c(O)c1 (centres undefined) | 13.6 |
| CC1(C)C=Cc2c(ccc3cc(-c4ccc(O)cc4O)oc23)O1 | 66.9 |
| COc1ccc(-c2coc3cc(O)ccc3c2=O)cc1 | 4.3 |
| CC(C)=CCc1c(O)ccc([C@@H]2COc3c(ccc(O)c3CC=C(C)C)C2)c1O | 7.9 |
| CC1(C)C=Cc2c(ccc3c(=O)c(Oc4ccc(O)cc4O)coc23)O1 | 2.4 |
| CC1(C)C=Cc2c(cc(O)c3c(=O)c(-c4ccc(O)cc4O)coc23)O1 | 28.7 |
| CC(C)=CCc1cc2c(cc1O)OCC(c1ccc(O)c3c1OC(C)(C)C=C3)=C2 | 3.8 |
| CC1(C)C=Cc2c(ccc(-c3oc4cc(O)ccc4c3C=O)c2O)O1 | 10.5 |
